- System: Escherichia coli TOP10
- Assay Explanation: shrunken log2 fold change of peptide-encoding DNA abundance (4.5 h post-induction vs induction); higher = less antimicrobial activity (less host growth inhibition)
- Condition Info: time post-induction: 4.5 h; library: site-saturation at positions 5, 18, 19, 20
Record form. Attribute: shrunken log2 fold change. Fill in for each entry.
One number for each entry.

For each listed entry, give its shrunken log2 fold change.
1. RRIRNRPPRLPRPRPRPCEIPRP
2. RRIRWRPPRLPRPRPRPFFIPRP

1: 0.0361; 2: -0.309

* * *

- Test system: Escherichia coli TOP10;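 also: peptides expressed intracellularly from a pBAD plasmid library in pooled LB shake-flask culture, induced with 0.3% L-arabinose, DNA abundance read by NGS, three biological replicates, DESeq2 with apeglm shrinkage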
- Assay Explanation: shrunken log2 fold change of peptide-encoding DNA abundance (4.5 h post-induction vs induction); higher = less antimicrobial activity (less host growth inhibition)
- Condition Info: time post-induction: 4.5 h; library: site-saturation at positions 5, 18, 19, 20
Record form. Attribute: shrunken log2 fold change. Fill in for each entry.
One number for each entry.

| Sequence Entry | shrunken log2 fold change |
| --- | --- |
| RRIRCRPPRLPRPRPRPPSIPRP | 0.0499 |
| RRIRGRPPRLPRPRPRPTWCPRP | 0.521 |
| RRIRNRPPRLPRPRPRPVLWPRP | 0.00135 |

For each listed entry, give its shrunken log2 fold change.
1. RRIRIRPPRLPRPRPRPAHIPRP
2. RRIRWRPPRLPRPRPRPTLRPRP
3. RRIRGRPPRLPRPRPRPVKVPRP
4. RRIRTRPPRLPRPRPRPQQAPRP

[-0.063, 0.0881, 0.425, -0.0444]

For each listed entry, give its shrunken log2 fold change.
1. RRIRWRPPRLPRPRPRPQIPPRP
2. RRIRCRPPRLPRPRPRPRSGPRP
3. RRIRRRPPRLPRPRPRPEVWPRP
4. RRIRRRPPRLPRPRPRPSMFPRP
5. RRIRPRPPRLPRPRPRPPFWPRP

[-0.493, 0.694, 1.74, -0.0509, 0.767]

For each listed entry, give its shrunken log2 fold change.
1. RRIRRRPPRLPRPRPRPHSMPRP
2. RRIRGRPPRLPRPRPRPYMSPRP
3. RRIRVRPPRLPRPRPRPYRDPRP

1: -0.118; 2: 0.0366; 3: -0.278

For each listed entry, give its shrunken log2 fold change.
1. RRIRIRPPRLPRPRPRPFVCPRP
2. RRIRVRPPRLPRPRPRPVFEPRP

[-0.797, -0.0665]

For each listed entry, give its shrunken log2 fold change.
1. RRIRDRPPRLPRPRPRPREQPRP
2. RRIRFRPPRLPRPRPRPPYQPRP

[1.36, -0.125]

For each listed entry, give its shrunken log2 fold change.
1. RRIRWRPPRLPRPRPRPSTTPRP
2. RRIRCRPPRLPRPRPRPYNRPRP
3. RRIRKRPPRLPRPRPRPEHVPRP
4. RRIRVRPPRLPRPRPRPWYQPRP
5. RRIRFRPPRLPRPRPRPEYAPRP
6. RRIRARPPRLPRPRPRPFCLPRP
7. RRIRCRPPRLPRPRPRPMANPRP
8. RRIRQRPPRLPRPRPRPPARPRP

1: 0.221; 2: -0.0425; 3: 0.0142; 4: -0.197; 5: -0.14; 6: 0.0753; 7: 0.0226; 8: 0.23

For each listed entry, give its shrunken log2 fold change.
1. RRIRHRPPRLPRPRPRPCWSPRP
2. RRIRSRPPRLPRPRPRPSEYPRP
3. RRIRQRPPRLPRPRPRPDKGPRP
4. RRIRFRPPRLPRPRPRPTDRPRP
5. RRIRTRPPRLPRPRPRPKAYPRP
6. RRIRLRPPRLPRPRPRPVNNPRP
7. RRIRFRPPRLPRPRPRPELSPRP
8. RRIRNRPPRLPRPRPRPPDFPRP

1: -0.166; 2: -0.306; 3: -0.285; 4: 0.243; 5: 0.0161; 6: -0.269; 7: 0.0455; 8: 0.272

For each listed entry, give its shrunken log2 fold change.
1. RRIRARPPRLPRPRPRPHQSPRP
2. RRIRHRPPRLPRPRPRPVKIPRP
3. RRIRHRPPRLPRPRPRPKHIPRP
4. RRIRFRPPRLPRPRPRPEKVPRP
5. RRIRNRPPRLPRPRPRPCVHPRP
6. RRIRRRPPRLPRPRPRPANRPRP
7. RRIRKRPPRLPRPRPRPPEYPRP

1: 0.265; 2: -0.0352; 3: -0.413; 4: -0.0394; 5: -0.0018; 6: -0.0151; 7: 0.0748
